- Test system: Mus musculus
- assay_procedure: Analgesic activity in ICR mouse assessed as increase in pain threshold variation at 20 umol/kg, po administered as single dose measured after 150 mins by tail flick test
- Assay type: functional
Consider the following compounds; for each one, report its Activity.
Number plus unit, in that order.

Before answering, review these 4 worked examples.
COC(=O)[C@H](CCSC)/N=C/C=C/N[C@@H](CCSC)C(=O)OC    22.05%
COC(=O)[C@H](COCc1ccccc1)/N=C/C=C/N[C@@H](COCc1ccccc1)C(=O)OC    34.17%
COC(=O)[C@H](C)N    11.01%
CCC(C)[C@H](/N=C/C=C/N[C@H](C(=O)OC)C(C)CC)C(=O)OC (stereo partly drawn)    34.89%

Report Activity for each item below.
1. COC(=O)[C@H](CC(C)C)/N=C/C=C/N[C@@H](CC(C)C)C(=O)OC
2. COC(=O)[C@H](Cc1ccccc1)/N=C/C=C/N[C@@H](Cc1ccccc1)C(=O)OC
3. COC(=O)[C@H](C)/N=C/C=C/N[C@@H](C)C(=O)OC
4. COC(CC(OC)OC)OC

Found:
1. 42.38%
2. 35.33%
3. 44.71%
4. 11.8%

###

- System: Mus musculus
- assay_procedure: Analgesic activity in ICR mouse assessed as increase in pain threshold variation at 20 umol/kg, po administered as single dose measured after 60 mins by tail flick test
- Format: functional
So basically, if Activity comes in under 30% it's 1 (yes), and if it's 30% or more it's 0 (no).

Record excerpt, results attached:
COC(=O)[C@H](C)N    1 (yes)
CCC(C)[C@H](/N=C/C=C/N[C@H](C(=O)OC)C(C)CC)C(=O)OC (stereo partly drawn)    1 (yes)
COC(CC(OC)OC)OC    1 (yes)
COC(=O)[C@H](COCc1ccccc1)/N=C/C=C/N[C@@H](COCc1ccccc1)C(=O)OC    0 (no)
COC(=O)[C@H](Cc1ccccc1)/N=C/C=C/N[C@@H](Cc1ccccc1)C(=O)OC    1 (yes)

Lookup: Consider `COC(=O)[C@H](C)/N=C/C=C/N[C@@H](C)C(=O)OC` . Does its Activity lie strictly below 30%?
Found: 0 (no)
